Would you kindly list IC50 for each of these compounds?
# Test system: MCF-7 cell line
# EXPERIMENT DESCRIPTION: MTT cytotoxicity assay in breast cancer cell line (MCF-7)
# Type: cell-based
# CONDITIONS USED: Homo sapiens, MCF7; MTT assay, 24 h treatment, mean ± SD; read-out: IC50 on MCF-7 cell lines
Unit µM implied. Number only.

Measured IC50 of CC1(C)C[C@H](O)C[C@@]2(C)OC(=O)C=C12 [Compound 3, loliolide] : 28.2

The reported IC50 of the compound C[C@@H]1O[C@@H](OC[C@H]2O[C@@H](Oc3c(-c4ccc(O)cc4)oc4cc(O)cc(O)c4c3=O)[C@H](O)[C@@H](O)[C@@H]2O)[C@H](O)[C@H](O)[C@H]1O [Compound 8, kaempferol-3-O-rutinoside] was 4.94

Quick note, IC50 for COc1cc(-c2oc3cc(O)cc(O)c3c(=O)c2OC2OC(CO)C(O)C(O)C2O)ccc1O [Compound 9, isorhamnetin 3-O-β-D-glucopyranoside] landed at 9.51

Short answer for O=c1c(O[C@@H]2O[C@H](CO)[C@@H](O)[C@H](O)[C@H]2O)c(-c2ccc(O)c(O)c2)oc2cc(O)cc(O)c12 [Compound 7, quercetin-3-O-β-D-glucopyranoside] : IC50 was 13.1

# compound C[C@@H]1O[C@@H](OC[C@H]2O[C@@H](Oc3c(-c4ccc(O)c(O)c4)oc4cc(O)cc(O)c4c3=O)[C@H](O)[C@@H](O)[C@@H]2O)[C@H](O)[C@H](O)[C@H]1O [Compound 4, quercetin-3-O-rutinoside] ; its IC50 = 25.6

For this compound ( C[C@@H]1O[C@@H](O[C@H]2[C@H](Oc3c(-c4ccc(O)cc4)oc4cc(O)cc(O)c4c3=O)O[C@H](CO)[C@@H](O)[C@@H]2O)[C@H](O)[C@H](O)[C@H]1O ), measured IC50 is 3.58

So for C[C@@H]1O[C@@H](OC[C@H]2O[C@@H](Oc3c(-c4ccc(O)cc4)oc4cc(O)cc(O)c4c3=O)[C@H](O[C@@H]3O[C@@H](C)[C@H](O)[C@@H](O)[C@H]3O)[C@@H](O)[C@@H]2O)[C@H](O)[C@H](O)[C@H]1O , the logged IC50 turned out to be 2.47

Reported IC50 for COC(=O)c1cc(O)c(O)c(O)c1 [Compound 2, methyl gallate] was 1.11
